# Test system: Mus musculus
# experimental_protocol: Inhibition of LPS-induced TNFalpha release in mouse at 20 mg/kg, po
# Assay type: functional
# measurement_parameters: OF1
reported_endpoint: inhibition in vivo at 20 mg/kg (%)

smiles_data	reported_endpoint	reading_unit	result_number
COc1ccc(CCCN2CCN(C)CC2)cc1-c1[nH]nc2nc(Nc3ccc(F)cc3F)ncc12	inhibition in vivo at 20 mg/kg	%	73
COc1ccc(C#CC(C)(C)O)cc1-c1[nH]nc2nc(Nc3ccc(F)cc3F)ncc12	inhibition in vivo at 20 mg/kg	%	98
COc1ccc(CCC(C)(C)O)cc1-c1[nH]nc2nc(Nc3ccc(F)cc3F)ncc12	inhibition in vivo at 20 mg/kg	%	98
COc1ccc(C#CCN2CCN(C)CC2)cc1-c1[nH]nc2nc(Nc3ccc(F)cc3F)ncc12	inhibition in vivo at 20 mg/kg	%	96
COc1ccc(C#CCN(C)C)cc1-c1[nH]nc2nc(Nc3ccc(F)cc3F)ncc12	inhibition in vivo at 20 mg/kg	%	96
COc1ccc(CNC2CCCC2)cc1-c1[nH]nc2nc(Nc3ccc(F)cc3F)ccc12	inhibition in vivo at 20 mg/kg	%	38
COc1ccc(CCC(C)(C)N)cc1-c1[nH]nc2nc(Nc3ccc(F)cc3F)ccc12	inhibition in vivo at 20 mg/kg	%	78
COc1ccc(CNC2CCOCC2)cc1-c1n[nH]c2nc(Nc3ccc(F)cc3F)ccc12	inhibition in vivo at 20 mg/kg	%	80
COc1ccc(C#CC(C)(C)N)cc1-c1[nH]nc2nc(Nc3ccc(F)cc3F)ccc12	inhibition in vivo at 20 mg/kg	%	98
